Test system: Caco-2
experiment-notes: Apparent permeability from basolateral to apical side of human Caco2 cells at 100 uM up to 90 mins
settings: caco-2, 1.5 h
Rule: Papp below 10 ×10⁻⁶ cm/s gives yes (1), anything at or above gives no (0).

>>> assigned_class("COC(=O)c1ccc2c(c1)nc(C(F)(F)F)n2C")
"no (0)"
>>> assigned_class("Cc1nc2cc(Cl)c(Cl)cc2n1C")
"no (0)"
>>> assigned_class("COC(=O)c1ccc2[nH]c(C(F)(F)F)nc2c1")
"no (0)"
>>> assigned_class("CSc1nc2cc(Cl)ccc2n1C")
"no (0)"
>>> assigned_class("CSc1nc2ccccc2n1C")
"yes (1)"
>>> assigned_class("COC(=O)Nc1nc2ccc(C(=O)c3ccccc3)cc2[nH]1 [MEBENDAZOLE]")
"yes (1)"
>>> assigned_class("CC(C)NCC(O)COc1cccc2ccccc12 (stereo not drawn) [PROPRANOLOL]")
"no (0)"
>>> assigned_class("Cn1c(C(F)(F)F)nc2cc(C(=O)O)ccc21")
"yes (1)"
>>> assigned_class("COC(=O)c1ccc2nc(C(F)(F)F)n(C)c2c1")
"no (0)"
>>> assigned_class("Cn1c(N)nc2cc(Cl)ccc21")
"yes (1)"
>>> assigned_class("Cn1c(S)nc2ccc(Cl)cc21")
"no (0)"
>>> assigned_class("CCN(CC)C(=O)COC(=O)c1ccc2c(c1)nc(C(F)(F)F)n2C")
"no (0)"
>>> assigned_class("O=C(O)c1ccc2nc(C(F)(F)F)[nH]c2c1")
"yes (1)"

---

Tested on: Caco-2
experiment-notes: Efflux ratio of permeability from apical to basolateral side over basolateral to apical side in human Caco2 cells at 100 uM up to 90 mins
settings: caco-2, 1.5 h
Entries whose Ratio is below 1 take 1.0; entries at or above 1 take 0.0.

>>> assigned_class("Cc1nc2ccccc2n1C")
0.0
>>> assigned_class("Cc1nc2cc(Cl)c(Cl)cc2n1C")
0.0
>>> assigned_class("CSc1nc2cc(Cl)ccc2n1C")
0.0
>>> assigned_class("COC(=O)c1ccc2c(c1)nc(C(F)(F)F)n2C")
1.0
>>> assigned_class("Cn1c(C(F)(F)F)nc2cc(C(=O)O)ccc21")
1.0
>>> assigned_class("COC(=O)c1ccc2nc(C(F)(F)F)n(C)c2c1")
1.0
>>> assigned_class("Cn1c(S)nc2ccc(Cl)cc21")
0.0
>>> assigned_class("CNC(=O)c1ccc2nc(C(F)(F)F)n(C)c2c1")
1.0
>>> assigned_class("Cn1c(N)nc2cc(Cl)ccc21")
0.0
>>> assigned_class("CC(C)NCC(O)COc1cccc2ccccc12 (centres undefined)")
1.0
>>> assigned_class("Cn1c(S)nc2cc(Cl)ccc21")
0.0
>>> assigned_class("CCCSc1ccc2nc(NC(=O)OC)[nH]c2c1")
1.0
>>> assigned_class("COC(=O)c1ccc2[nH]c(C(F)(F)F)nc2c1")
1.0
>>> assigned_class("CSc1nc2ccccc2n1C")
0.0

---

# Papp per record follows
Test system: Caco-2
experiment-notes: Apparent permeability from apical to basolateral side of human Caco2 cells at 100 uM up to 90 mins
settings: caco-2, 1.5 h
outcome-measure: Papp

>>> measured_value("CCCSc1ccc2nc(NC(=O)OC)[nH]c2c1")
"3.14 ×10⁻⁶ cm/s"
>>> measured_value("Cn1c(S)nc2ccccc21")
"8.14 ×10⁻⁶ cm/s"
>>> measured_value("Cn1c(S)nc2cc(Cl)ccc21")
"6.92 ×10⁻⁶ cm/s"
>>> measured_value("CSc1nc2ccccc2n1C")
"7.12 ×10⁻⁶ cm/s"
>>> measured_value("Cn1c(S)nc2ccc(Cl)cc21")
"14.1 ×10⁻⁶ cm/s"
>>> measured_value("CNC(=O)c1ccc2nc(C(F)(F)F)n(C)c2c1")
"14.6 ×10⁻⁶ cm/s"
